- Test system: Pseudomonas aeruginosa
- Experiment: Tested in vitro for inhibitory activity against gram negative bacteria Pseudomonas aeruginosa ATCC 9027 strain
- Type: functional
Could you please report measured log10 MIC for the items listed next?
Heads up, the numbers here are log10 of MIC in µg/mL units.

Ask: // lookup log10 MIC for `CC(C)(C)n1cc(C(=O)O)c(=O)c2cc(N)c(N3CCSCC3)cc21`
Result: 0.60

Ask: // lookup log10 MIC for `Nc1cc2c(=O)c(C(=O)O)cn(C3CC3)c2cc1N1CCC(O)CC1`
Result: 0.90

Ask: // lookup log10 MIC for `Nc1cc2c(=O)c(C(=O)O)cn(C3CC3)c2cc1Cl`
Result: 2.11

Ask: // lookup log10 MIC for `NCCSc1cc2c(cc1N)c(=O)c(C(=O)O)cn2C1CC1`
Result: 2.11

Ask: // lookup log10 MIC for `CN1CCN(c2cc3c(cc2N)c(=O)c(C(=O)O)cn3C2CC2)CC1`
Result: 0.60

Ask: // lookup log10 MIC for `CN1CCN(c2cc3c(cc2N)c(=O)c(C(=O)O)cn3C(C)(C)C)CC1`
Result: 0.60

Ask: // lookup log10 MIC for `CC(C)(C)n1cc(C(=O)O)c(=O)c2cc(N)c(N3CCc4ccccc43)cc21`
Result: 1.51

Ask: // lookup log10 MIC for `Nc1cc2c(=O)c(C(=O)O)cn(C3CC3)c2cc1N1CCSC1`
Result: 2.11

Ask: // lookup log10 MIC for `CN1CCN(c2c(N)cc3c(=O)c(C(=O)O)cn(C4CC4)c3c2F)CC1`
Result: 0.30

Ask: // lookup log10 MIC for `Nc1cc2c(=O)c(C(=O)O)cn(C3CC3)c2c(F)c1N1CCSCC1`
Result: 0.60

Ask: // lookup log10 MIC for `CN1CCN(c2c(N)c(N)c3c(=O)c(C(=O)O)cn(C4CC4)c3c2F)CC1`
Result: 0.60

Ask: // lookup log10 MIC for `CC(C)(C)n1cc(C(=O)O)c(=O)c2cc(N)c(N3CCc4ccccc4C3)cc21`
Result: 1.51
